// provenance: patent US8399465B2

- study_system: recombinant human LTA4 hydrolase (rhLTA4H) (Homo sapiens, UniProt P09960)
- Construct: made in house; host or cells: Spodoptera frugiperda (Sf-9) cells, baculovirus (pFastBac1)
- Sequence (P09960 whole entry): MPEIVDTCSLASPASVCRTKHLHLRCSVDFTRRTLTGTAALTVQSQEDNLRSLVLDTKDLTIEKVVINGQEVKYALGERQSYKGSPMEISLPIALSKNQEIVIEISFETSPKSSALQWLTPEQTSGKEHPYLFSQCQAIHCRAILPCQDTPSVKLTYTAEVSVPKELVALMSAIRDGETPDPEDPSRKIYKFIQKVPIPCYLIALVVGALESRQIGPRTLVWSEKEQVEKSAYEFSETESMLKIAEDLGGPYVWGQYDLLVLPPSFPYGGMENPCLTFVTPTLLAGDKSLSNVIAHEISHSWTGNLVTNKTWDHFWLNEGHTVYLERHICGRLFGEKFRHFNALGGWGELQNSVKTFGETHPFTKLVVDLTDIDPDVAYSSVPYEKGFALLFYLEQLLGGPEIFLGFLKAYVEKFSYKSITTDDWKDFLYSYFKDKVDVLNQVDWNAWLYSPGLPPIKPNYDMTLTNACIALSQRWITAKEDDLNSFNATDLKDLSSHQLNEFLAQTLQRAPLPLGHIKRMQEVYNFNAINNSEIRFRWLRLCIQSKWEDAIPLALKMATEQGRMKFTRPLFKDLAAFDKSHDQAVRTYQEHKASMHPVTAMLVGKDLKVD
- assay_explanation: Recombinant human LTA4 hydrolase assay for LTA4 hydrolase inhibitor activity
- Assay type: biochemical
- assay_context: rhLTA4H, LTB4 by immunoassay; single determination or average of two or more; mark after value = form tested: ′ free base, ″ hydrochloride, ^ formate; read-out: IC50
pIC50: −log10 of the molar value. Where a name gives a salt, the structure may show the parent alone.
// thresholds for pIC50 classes: bucket A (below 7), bucket B (7 to below 8), bucket C (8 or more)

Previously resolved entries follow.
# molecule, study_system, assigned_class
rows = [
    ("CC(=O)N(CC(=O)O)[C@H]1C[C@H]2CC[C@@H](C1)N2Cc1c[nH]c2cc(Oc3nc4ccccc4s3)ccc12 [Example 48]", "recombinant human LTA4 hydrolase (rhLTA4H) (Homo sapiens, UniProt P09960)", "bucket A"),
    ("c1ccc2sc(Oc3ccc4cc(CN5CCCCC5)sc4c3)nc2c1 [Example 132]", "recombinant human LTA4 hydrolase (rhLTA4H) (Homo sapiens, UniProt P09960)", "bucket A"),
]

Ask: Determine which band this molecule sits in: CNC(=O)C1CCN(Cc2coc3cc(Oc4nc5ncccc5s4)ccc23)CC1 [Example 214]
Result: bucket C

Ask: Field entry: c1cnc2nc(Oc3ccc4oc(CN5C[C@@H]6C[C@H]5CO6)cc4c3)sc2c1 [Example 99]
Result: bucket B

Ask: Field entry: NC(=O)C1CCCN(Cc2coc3cc(Oc4nc5ncccc5s4)ccc23)C1 (stereo in doubt) [Example 216]
Result: bucket C

Ask: Field entry: Cn1cc(CN2CCOCC2)c2ccc(Oc3nc4ccccc4s3)cc21 [Example 61]
Result: bucket A

Ask: Field entry: O=C1CCCCN1C1CCN(Cc2coc3cc(Oc4nc5ncccc5s4)ccc23)CC1 [Example 272, formate]
Result: bucket C

Ask: Field entry: CC(=O)N1C[C@H]2CC[C@@H](C1)N2Cc1cc2ncc(Oc3nc4ncccc4s3)cc2o1 [Example 338]
Result: bucket A

Ask: Field entry: c1ccc(N2CCN(Cc3coc4cc(Oc5nc6ncccc6s5)ccc34)CC2)nc1 [Example 288, formate]
Result: bucket B

Ask: Field entry: NC(=O)C1CCN(Cc2cc3ccc(Oc4nc5ncccc5s4)cc3s2)CC1 [Example 138]
Result: bucket A

Ask: Field entry: c1cnc2nc(Oc3ccc4c(CN5CCCC5)coc4c3)sc2c1 [Example 185]
Result: bucket C

Ask: Field entry: CN(Cc1cccnc1)Cc1coc2cc(Oc3nc4ncccc4s3)ccc12 [Example 178]
Result: bucket B

Ask: Field entry: CC(=O)NCC1CCN(Cc2coc3cc(Oc4nc5ncccc5s4)ccc23)CC1 [Example 162]
Result: bucket C

Ask: Field entry: O=C(NCc1coc2cc(Oc3nc4ncccc4s3)ccc12)C1CCC(O)CC1 (stereo not drawn) [Example 392]
Result: bucket B

Ask: Field entry: CC(=O)N[C@H]1C[C@H]2CC[C@@H](C1)N2Cc1cc2ccc(Oc3nc4cnccc4s3)cc2o1 [Example 201]
Result: bucket A

Ask: Field entry: NC(=O)N1C[C@@H]2C[C@H]1CN2 [Inter. 17, hydrochloride]
Result: bucket B

----------
- System: LTB4 production in murine blood (LTA4H)
- assay_explanation: LTB4 production by calcium ionophore-stimulated murine blood for LTA4H inhibitor activity
- Type: cell-based, CD-1 mice
- assay_context: Mus musculus; murine blood diluted 1 in 15, A23187 stimulated; single determination or average; mark after value = form tested: ′ free base, ″ hydrochloride, ^ formate; read-out: IC50
readout_label: pIC50
Worth noting: pIC50 values are minus log10 of concentrations stated in mol/L.

See these solved cases before continuing.
# compound, study_system, pIC50
measured = [
    ("c1cnc2nc(Oc3ccc4c(CN5CCCCC5)c[nH]c4c3)sc2c1", "LTB4 production in murine blood (LTA4H)", 7.77),
    ("CC(=O)N[C@@H]1CCN(Cc2coc3cc(Oc4nc5ncccc5s4)ccc23)C1", "LTB4 production in murine blood (LTA4H)", 7.80),
    ("c1ccc(CC2CCN(Cc3coc4cc(Oc5nc6ncccc6s5)ccc34)CC2)cc1", "LTB4 production in murine blood (LTA4H)", 6.89),
]

Ask: Tell me reported pIC50 for "O=C1CN(Cc2coc3cc(Oc4nc5ncccc5s4)ccc23)CCN1" , tested with LTB4 production in murine blood (LTA4H).
Result: 6.64

Ask: Field entry: "CC(=O)N1[C@@H]2CC[C@H]1C[C@H](NCc1coc3cc(Oc4nc5ncccc5s4)ccc13)C2"
Result: 7.62

Ask: Field entry: "c1ccc2sc(Oc3cnc4c(CN5CCOCC5)c[nH]c4c3)nc2c1"
Result: 6.59
